Catalogue of % converted to metabolite (mean) readings, one per entry.
# Method summary: Skin permeation in vertical Franz diffusion cells
# Format: in vitro ADME, porcine
# Protocol conditions: 1% W/V applied; 8 h
Reply numerically in %, unit not repeated.

Query string: Consider the compound CCCCCCOC(=O)c1cc(N)ccc1N [PPD derivative 15, Hexyl-2,5-diaminobenzoate] and give its recorded % converted to metabolite (mean).
Result string: 0.0108

Query string: Specify measured % converted to metabolite (mean) for Nc1ccc(N)cc1 [PPD, para-phenylenediamine, reference compound] .
Result string: 3.17

====

# System: cysteine peptide (Ac-RFAACAA-COOH)
# Method summary: Direct Peptide Reactivity Assay, cysteine peptide
# Protocol conditions: 20 min; 1:10
Reported metric: % of Cysteine depletion, Rep 3 (%)
Report the value in % with no unit label.

Some compounds with recorded % of Cysteine depletion, Rep 3:
{"Compound": "Nc1ccc(Nc2ccc(Nc3ccc(N)cc3)cc2)cc1 [PPD derivative 2]", "% of Cysteine depletion, Rep 3 / %": 52.6}
{"Compound": "CCCCCCOc1cc(N)ccc1N [PPD derivative 4, 2-hexyloxy-1,4-diaminobenzene]", "% of Cysteine depletion, Rep 3 / %": 33.8}
{"Compound": "Nc1ccc(N)cc1 [PPD, para-phenylenediamine, reference compound]", "% of Cysteine depletion, Rep 3 / %": 15.2}

Query string: Given the compound NC1=CC(=Nc2ccc(N)cc2)C(N)=CC1=Nc1ccc(N)cc1 [Bandrowski Base, reference compound] , write its reported % of Cysteine depletion, Rep 3.
Result string: 45.5

====

# Test system: lysine peptide (Ac-RFAAKAA-COOH)
# Method summary: Direct Peptide Reactivity Assay, lysine peptide
# Protocol conditions: lysine; 20 min; 1:50
Reported metric: Reactivity Class

{"Compound": "NC1=CC(=Nc2ccc(N)cc2)C(N)=CC1=Nc1ccc(N)cc1 [Bandrowski Base, reference compound]", "Reactivity Class": "Low"}
{"Compound": "OC[C@H]1O[C@@H](O[C@H]2[C@H](O)[C@@H](O)C(O)O[C@@H]2CO)[C@H](O)[C@@H](O)[C@H]1O (stereo partly drawn) [Lactose, reference compound]", "Reactivity Class": "No or Minimal"}
{"Compound": "CCCCC(CC)COc1cc(N)ccc1N (stereo not drawn) [PPD derivative 3, 2-((2-ethylhexyl)oxy)benzene-1,4-diamine]", "Reactivity Class": "No or Minimal"}
{"Compound": "Nc1ccc(Nc2ccc(Nc3ccc(N)cc3)cc2)cc1 [PPD derivative 2]", "Reactivity Class": "Low"}
{"Compound": "CCCCCCOc1cc(N)ccc1N [PPD derivative 4, 2-hexyloxy-1,4-diaminobenzene]", "Reactivity Class": "No or Minimal"}
{"Compound": "Nc1ccc(N)cc1 [PPD, para-phenylenediamine, reference compound]", "Reactivity Class": "Low"}
{"Compound": "Nc1ccc(Nc2ccc(N)cc2)cc1 [PPD derivative 1, 4,4′-Diaminodiphenylamine]", "Reactivity Class": "Low"}
{"Compound": "CCCCCCOc1cc(Nc2ccc(N)cc2)ccc1N [PPD derivative 5]", "Reactivity Class": "No or Minimal"}

Query string: Identify measured Reactivity Class obtained with lysine peptide (Ac-RFAAKAA-COOH) for O=C1C=CC(=O)C=C1 [p-Benzoquinone, p-benzoquinone, reference compound] .
Result string: Low

====

# System: lysine peptide (Ac-RFAAKAA-COOH)
# Method summary: Direct Peptide Reactivity Assay, lysine peptide
# Protocol conditions: lysine; 24 h; 1:50
Reported metric: Reactivity Class

{"Compound": "O=C1C=CC(=O)C=C1 [p-Benzoquinone, p-benzoquinone, reference compound]", "System": "lysine peptide (Ac-RFAAKAA-COOH)", "Reactivity Class": "High"}
{"Compound": "NC1=CC(=Nc2ccc(N)cc2)C(N)=CC1=Nc1ccc(N)cc1 [Bandrowski Base, reference compound]", "System": "lysine peptide (Ac-RFAAKAA-COOH)", "Reactivity Class": "Low"}
{"Compound": "CCCCC(CC)COc1cc(N)ccc1N (stereo not drawn) [PPD derivative 3, 2-((2-ethylhexyl)oxy)benzene-1,4-diamine]", "System": "lysine peptide (Ac-RFAAKAA-COOH)", "Reactivity Class": "Low"}
{"Compound": "Nc1ccc(N)cc1 [PPD, para-phenylenediamine, reference compound]", "System": "lysine peptide (Ac-RFAAKAA-COOH)", "Reactivity Class": "Moderate"}
{"Compound": "CCCCCCOc1cc(N)ccc1N [PPD derivative 4, 2-hexyloxy-1,4-diaminobenzene]", "System": "lysine peptide (Ac-RFAAKAA-COOH)", "Reactivity Class": "Low"}

Query string: Return reported Reactivity Class. Input compound: Nc1ccc(Nc2ccc(N)cc2)cc1 [PPD derivative 1, 4,4′-Diaminodiphenylamine]
Result string: Moderate

Query string: Supply recorded Reactivity Class for CCCCCCOc1cc(Nc2ccc(N)cc2)ccc1N [PPD derivative 5] here.
Result string: Low

Query string: For the compound Nc1ccc(Nc2ccc(Nc3ccc(N)cc3)cc2)cc1 [PPD derivative 2] , give its measured Reactivity Class value.
Result string: Low

====

# Method summary: Skin permeation in vertical Franz diffusion cells
# Format: in vitro ADME, porcine
# Protocol conditions: pig; 1% W/V applied; 8 h; read-out: % Parent compound Recovery (mean)
Reported metric: recovery at 8 h, 1 % w/v (%)
Just the number in %, nothing appended.

Recorded results for 5 molecules are shown here.
{"Molecule": "Nc1ccc(Nc2ccc(Nc3ccc(N)cc3)cc2)cc1", "recovery at 8 h, 1 % w/v [%]": 96.4}
{"Molecule": "CCCCC(CC)COc1cc(N)ccc1N (stereo not drawn)", "recovery at 8 h, 1 % w/v [%]": 94.5}
{"Molecule": "CCCCCCOC(=O)c1cc(N)ccc1N [PPD derivative 15, Hexyl-2,5-diaminobenzoate]", "recovery at 8 h, 1 % w/v [%]": 96.7}
{"Molecule": "Nc1ccc(N)cc1 [PPD, para-phenylenediamine, reference compound]", "recovery at 8 h, 1 % w/v [%]": 90.3}
{"Molecule": "CCCCCCOc1cc(N)ccc1N", "recovery at 8 h, 1 % w/v [%]": 94.3}

Query string: Answer with the recorded recovery at 8 h, 1 % w/v of `CCCCCCOC(=O)c1cc(Nc2ccc(N)cc2)ccc1N` only.
Result string: 95.4

====

# Tested on: HaCaT cells
# Method summary: In vitro cell cytotoxicity (MTT) assay on HaCaT cells
# Type: cell-based, human
# Protocol conditions: Homo sapiens, HaCaT; 72 h incubation; MTT
Reported metric: pIC50
The value called pIC50 is obtained by taking minus log10 of the concentration in mol/L.

Query string: Name the recorded pIC50 of the item Nc1ccc(N)cc1 [PPD, para-phenylenediamine, reference compound] in your answer.
Result string: 4.63

====

# Test system: lysine peptide (Ac-RFAAKAA-COOH)
# Method summary: Direct Peptide Reactivity Assay, lysine peptide
# Protocol conditions: 20 min; 1:50
Threshold check on % of Lysine depletion, Rep 3: strictly below 6% is T; on or above 6% is F.

Query string: Determine if OC[C@H]1O[C@@H](O[C@H]2[C@H](O)[C@@H](O)C(O)O[C@@H]2CO)[C@H](O)[C@@H](O)[C@H]1O (stereo partly drawn) [Lactose, reference compound] shows % of Lysine depletion, Rep 3 strictly lower than 6%.
Result string: T

Query string: Decide: % of Lysine depletion, Rep 3 of NC1=CC(=Nc2ccc(N)cc2)C(N)=CC1=Nc1ccc(N)cc1 [Bandrowski Base, reference compound] strictly below 6%?
Result string: T

Query string: Is 6% strictly greater than the molecule's reported % of Lysine depletion, Rep 3? molecule: `Nc1ccc(Nc2ccc(Nc3ccc(N)cc3)cc2)cc1`
Result string: F

====

# System: cysteine peptide (Ac-RFAACAA-COOH)
# Method summary: Direct Peptide Reactivity Assay, cysteine peptide
# Protocol conditions: cysteine; 20 min; 1:10

{"Compound": "Nc1ccc(Nc2ccc(Nc3ccc(N)cc3)cc2)cc1 [PPD derivative 2]", "Reactivity Class": "High"}
{"Compound": "O=C1C=CC(=O)C=C1 [p-Benzoquinone, p-benzoquinone, reference compound]", "Reactivity Class": "High"}
{"Compound": "NC1=CC(=Nc2ccc(N)cc2)C(N)=CC1=Nc1ccc(N)cc1 [Bandrowski Base, reference compound]", "Reactivity Class": "High"}

====

# Tested on: cysteine and lysine peptides
# Method summary: Direct Peptide Reactivity Assay, mean of cysteine and lysine depletion (FIG. 12)
# Protocol conditions: cysteine 1:10 / lysine 1:50 model
Reported metric: Sensitizing potential predicted from mean peptide depletion

Some solved entries appear below for comparison.
{"Compound": "Nc1ccc(Nc2ccc(N)cc2)cc1 [PPD derivative 1, 4,4′-Diaminodiphenylamine]", "Endpoint result": "high sensitizing agents"}
{"Compound": "Nc1ccc(Nc2ccc(Nc3ccc(N)cc3)cc2)cc1 [PPD derivative 2]", "Endpoint result": "high sensitizing agents"}
{"Compound": "Nc1ccc(N)cc1 [PPD, para-phenylenediamine, reference compound]", "Endpoint result": "strong sensitizer"}
{"Compound": "NC1=CC(=Nc2ccc(N)cc2)C(N)=CC1=Nc1ccc(N)cc1 [Bandrowski Base, reference compound]", "Endpoint result": "moderate sensitizer"}
{"Compound": "COCc1cc(N)ccc1N [MEPPD, 2-(methoxymethyl)benzene-1,4,-diamine, reference compound]", "Endpoint result": "strong sensitizer"}
{"Compound": "CCCCCCOc1cc(N)ccc1N [PPD derivative 4, 2-hexyloxy-1,4-diaminobenzene]", "Endpoint result": "moderate sensitizer"}

Query string: Determine its reported Sensitizing potential predicted from mean peptide depletion: CCCCCCNc1ccc(N)cc1OCCCCCC [PPD derivative 16]
Result string: moderate sensitizer

Query string: Answer with the recorded Sensitizing potential predicted from mean peptide depletion for the compound listed here: CCCCC(CC)COc1cc(N)ccc1N (stereo not drawn) [PPD derivative 3, 2-((2-ethylhexyl)oxy)benzene-1,4-diamine]
Result string: moderate sensitizer

The measurements presented in this section are drawn from patent US11129782B2.
